System: Zur (Pseudomonas aeruginosa), ORF:f39b2fc0
Sequence: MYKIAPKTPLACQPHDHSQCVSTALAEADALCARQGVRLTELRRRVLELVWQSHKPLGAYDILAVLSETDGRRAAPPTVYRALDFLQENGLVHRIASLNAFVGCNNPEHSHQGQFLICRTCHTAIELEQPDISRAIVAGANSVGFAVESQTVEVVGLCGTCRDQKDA
Test method notes: EMSA
Condition notes: EMSA: 30 ng DNA, 500 nM Zur, 5X Zn-less binding buffer (50 mM Tris, 200 mM KCl, 50 mM MgCl2, 5 mM DTT, 25% glycerol; 5X [sic], pH not given), 5 uM ZnCl2 …
Readout type: binding

Residue codes	Recorded result
GGCTGGGCTGGTCGTCGGAAAAGAGGGATGAGTATCACAGCCTGGCGGCGAGAAGCGAGATAGAGCCGGGCATTGTATTGCGAGGCCGGAATCGAACTGGTAGCGTTATAGTATATCATTTCTTTTCTGGTGCGATTTCCCATGAGAGTCAGTGTGTCGCTTGTCCTCGGTGTCGGCCTCGGTTGCAGCAGTCCGGCGCTCTGGGCGGAAACGGAAAGTCCCGCGG (double strand) [pzrmA]	binds
CTCTGCCAGACCAGTTCCAGCACGCGCCGCCGCAGTTCGGTCAGGCGCACGCCCTGGCGCGCGCACAGCGCATCGGCCTCGGCCAGCGCGGTGCTGACGCACTGGCTGTGGTCATGGGGCTGGCAGGCCAGCGGGGTCTTGGGCGCAATCTTGTACATGGGCTGCGACGCTCGAGGGTAGAGACGTTATTATATTACCCGCTAACCACCTTTCA (double strand) [pznuA]	binds
CATAGCAGGCCGGCGTGAAGAAAATGTGATGACCCGGGAAGCTGCGCCAGGGCGTGGGGTCCGGCGAAGAAAGACTGCACAAGCGAATTGTTATAGTATAACATTTTATTCAATCCAGATCGTTCAAGGCTTGACTGGAAACGGTGCGGATGTTCCCATCCGGCCCGTTCCAGGTGCCTCCTGCCGCCGCGCAGGAGGTGAAACGGGAAGCCGGTGCGTCACTTCGGTGA (double strand) [pPA2911]	binds
